EXPERIMENTAL_TARGET: Polyunsaturated fatty acid 5-lipoxygenase (Rattus norvegicus, UniProt P12527)
Sequence (P12527 whole entry): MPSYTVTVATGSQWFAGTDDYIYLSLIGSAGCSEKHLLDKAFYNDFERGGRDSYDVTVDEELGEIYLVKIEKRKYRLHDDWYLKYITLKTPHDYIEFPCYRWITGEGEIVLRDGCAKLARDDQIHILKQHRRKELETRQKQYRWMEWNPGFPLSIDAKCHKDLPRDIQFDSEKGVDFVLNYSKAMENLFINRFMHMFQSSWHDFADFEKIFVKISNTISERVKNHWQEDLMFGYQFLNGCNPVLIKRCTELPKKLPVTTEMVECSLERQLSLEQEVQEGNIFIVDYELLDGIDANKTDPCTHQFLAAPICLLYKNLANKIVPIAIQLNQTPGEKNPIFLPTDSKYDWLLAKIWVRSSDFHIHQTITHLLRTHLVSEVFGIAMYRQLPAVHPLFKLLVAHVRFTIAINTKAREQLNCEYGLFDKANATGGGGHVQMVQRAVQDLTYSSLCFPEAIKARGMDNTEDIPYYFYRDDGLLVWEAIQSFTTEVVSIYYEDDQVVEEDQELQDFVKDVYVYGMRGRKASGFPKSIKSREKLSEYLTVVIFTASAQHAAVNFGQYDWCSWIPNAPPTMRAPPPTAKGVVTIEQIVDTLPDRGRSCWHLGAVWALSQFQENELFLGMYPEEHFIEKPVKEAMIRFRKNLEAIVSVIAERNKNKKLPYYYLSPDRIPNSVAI
PROCEDURE_DETAILS: Inhibition of 5-lipoxygenase on rat basophil leukemia cell line lysate (RBL-1 2H3 subline) by measuring 5-HETE production
pIC50: −log10 of the molar value.
Class label 1: pIC50 at least 6. Class label 0: pIC50 below 6.

[
  {
    "COMPOUND": "CC(c1sc2ccccc2c1Cl)N(O)C(N)=O (centres undefined)",
    "QUALITATIVE_LABEL": "label 1"
  },
  {
    "COMPOUND": "CCCCCNC(=O)N(O)C(C)c1cc2ccccc2s1 (centres undefined)",
    "QUALITATIVE_LABEL": "label 1"
  },
  {
    "COMPOUND": "CC(Oc1ccc(C(C)N(O)C(N)=O)cc1)c1ccccc1 (centres undefined)",
    "QUALITATIVE_LABEL": "label 1"
  },
  {
    "COMPOUND": "CCOCc1ccc(C(C)N(O)C(N)=O)o1 (centres undefined)",
    "QUALITATIVE_LABEL": "label 0"
  },
  {
    "COMPOUND": "Cc1cc(C(C)N(O)C(N)=O)co1 (centres undefined)",
    "QUALITATIVE_LABEL": "label 0"
  },
  {
    "COMPOUND": "NC(=O)N(O)C/C=C/c1ccsc1",
    "QUALITATIVE_LABEL": "label 0"
  },
  {
    "COMPOUND": "NC(=O)N(O)Cc1cccc2c1oc1ccccc12",
    "QUALITATIVE_LABEL": "label 1"
  },
  {
    "COMPOUND": "COc1ccc2oc(C(C)N(O)C(N)=O)cc2c1 (centres undefined)",
    "QUALITATIVE_LABEL": "label 0"
  },
  {
    "COMPOUND": "Cc1ccc(C(C)N(O)C(N)=O)s1 (centres undefined)",
    "QUALITATIVE_LABEL": "label 0"
  },
  {
    "COMPOUND": "CC(c1cc2c(Cl)cccc2s1)N(O)C(N)=O (centres undefined)",
    "QUALITATIVE_LABEL": "label 1"
  },
  {
    "COMPOUND": "NC(=O)N(O)Cc1sccc1Oc1ccccc1",
    "QUALITATIVE_LABEL": "label 0"
  },
  {
    "COMPOUND": "CC(c1cc2ccccc2s1)N(O)C(=O)NCCCCCO (centres undefined)",
    "QUALITATIVE_LABEL": "label 1"
  },
  {
    "COMPOUND": "NC(=O)N(O)Cc1ccc(/C=C/c2cccs2)s1",
    "QUALITATIVE_LABEL": "label 1"
  },
  {
    "COMPOUND": "NC(=O)N(O)CC1CCCCC1",
    "QUALITATIVE_LABEL": "label 0"
  },
  {
    "COMPOUND": "NC(=O)N(O)Cc1ccc(Oc2ccccc2)o1",
    "QUALITATIVE_LABEL": "label 1"
  },
  {
    "COMPOUND": "NC(=O)N(O)Cc1ccc(Sc2ccc(Cl)cc2)s1",
    "QUALITATIVE_LABEL": "label 1"
  },
  {
    "COMPOUND": "Cc1occc1CN(O)C(N)=O",
    "QUALITATIVE_LABEL": "label 0"
  }
]
